The measurements presented in this section are drawn from ChEMBL document CHEMBL1201862.

Tested on: HCT-116
experiment_description: NCI tumour cell line growth inhibition, 48 h
Active and inactive are the calls of the source. No stated cut-off is given here; in the data, active = GI50 up to about 1.1 µM and inactive = higher.
Each entry below carries its reported GI50.

# molecule, GI50
measured = [
    ("CC1COS(=O)O1 (stereo unspecified)", "> 100 µM (inactive)"),
    ("CCCCCCCCCCCCn1[nH]c(C)c(C(=S)SCCCCCCCC)c1=O", "29.6 µM (inactive)"),
    ("CN(C)NC(=O)/C(=C/c1ccc(Cl)cc1)NC(=O)c1ccccc1", "> 100 µM (inactive)"),
    ("CC/N=C(\\N)CSS(=O)(=O)O", "> 100 µM (inactive)"),
    ("N=C(CC(=O)NOC(=O)c1ccccc1)NOC(=O)c1ccccc1", "38.6 µM (inactive)"),
    ("O=C(/C=C/c1ccc(Cl)c(Cl)c1)c1cccc2ccccc12", "3.23 µM (inactive)"),
    ("CC1(CO)COS(=O)OC1 (stereo unspecified)", "> 100 µM (inactive)"),
    ("CC(C)[C@H]1CO[C@@H]2O[C@H](C)CC(=O)N21", "> 100 µM (inactive)"),
    ("O=C(/C=C/c1ccc(OCCSCCCCCCCCCCSCCOc2ccc(/C=C/C(=O)c3ccc(Cl)cc3)cc2)cc1)c1ccc(Cl)cc1", "> 100 µM (inactive)"),
    ("CCNC(=S)N/N=C/c1ccccn1", "8.93 µM (inactive)"),
    ("O=c1oc(-c2ccc(O)c(O)c2)cc2cccc(O)c12", "10.3 µM (inactive)"),
]

* * *

Test system: SK-MEL-2
experiment_description: NCI tumour cell line growth inhibition, 48 h
The source made the active and inactive calls. Cut-off read from the data, not from the text of the source: active = GI50 up to about 1.1 µM and inactive = higher.
Each entry below carries its reported GI50.

# molecule, GI50
measured = [
    ("CC/N=C(\\N)CSS(=O)(=O)O", "> 100 µM (inactive)"),
    ("N#Cc1c(-c2ccc(Cl)cc2)c(C#N)c(=O)n(NS(=O)(=O)c2ccccc2)c1O", "19.6 µM (inactive)"),
    ("COc1cc2c(cc1OC)C(=O)N1CCCC1C(=O)S2 (configuration not stated)", "> 100 µM (inactive)"),
    ("COC(=O)C1CC(C(=O)OC)c2nc3cc(C)ccc3nc21 (configuration not stated)", "> 100 µM (inactive)"),
    ("O=C1CCC(=O)c2c1c(O)c1ccncc1c2O", "13.6 µM (inactive)"),
    ("CCSC1=N/C(=C\\c2ccco2)C(Cl)=N1", "> 100 µM (inactive)"),
    ("COc1ccc2c(Cc3c4ccccc4cc4ccccc34)cncc2c1O", "2.87 µM (inactive)"),
    ("NS(=O)(=O)c1cc2c(cc1Cl)N=C(CCC(=O)O)NS2(=O)=O", "> 100 µM (inactive)"),
    ("COC(=O)c1cc2c3c(ccc2[nH]1)N(C(=O)c1cc2c4c(ccc2[nH]1)N(C(=O)c1cc2c5c(ccc2[nH]1)N(C(N)=O)CC5)CC4)CC3", "3.18 µM (inactive)"),
    ("Cc1c(Cl)cc(C(C)(C)C)c(O)c1Cc1c(C)c(Cl)cc(C(C)(C)C)c1O", "1.73 µM (inactive)"),
    ("CSC1(SC)N2Cc3ccccc3N=C2C1(c1ccccc1)c1ccccc1", "12.7 µM (inactive)"),
    ("O=P(O)(O)CC1OC(CO)C(O)C1O (configuration not stated)", "> 100 µM (inactive)"),
]

* * *

Test system: HCT-116
experiment_description: NCI tumour cell line growth inhibition, 48 h
Active and inactive are the calls of the source. Cut-off read from the data, not from the text of the source: active = GI50 up to about 1.1 µM and inactive = higher.

# compound, GI50
rows = [
    ("CCOC(=O)C(=O)Nc1ccc([N+](=O)[O-])cc1C#N", "> 100 µM (inactive)"),
    ("COc1cc(S(=O)(=O)Nc2ccc(-c3csc(N4C(=O)C(Cl)C4c4ccccc4O)n3)cc2)ccc1Cl (stereo unspecified)", "30.3 µM (inactive)"),
    ("COc1cc2ccnc3c2c(c1OC)CC1CC(O)C(OC)CC31 (stereo unspecified)", "38.7 µM (inactive)"),
    ("OCCNCCN1CCN(CCCN2c3ccccc3Sc3ccc(C(F)(F)F)cc32)CC1", "17.9 µM (inactive)"),
    ("O=C1Nc2ccccc2C1S(=O)(=O)c1ccccc1 (stereo unspecified)", "> 100 µM (inactive)"),
    ("CC1(C)OC2OC(COC(=O)C(c3ccccc3)c3ccccc3)C3OC(C)(C)OC3C2O1 (stereo unspecified)", "> 10 µM (inactive)"),
    ("O=C1C=CC(=O)c2c1cc1ccccc1c2O", "1.85 µM (inactive)"),
    ("Cc1cc(N(CCC#N)CCC#N)ccc1/C=C1\\N=C(c2cc([N+](=O)[O-])ccc2Cl)N(NC(=O)c2ccc(/N=C\\c3ccc(N(CCC#N)S(C)(=O)=O)cc3C)cc2)C1=O", "> 100 µM (inactive)"),
    ("O=c1[nH]cnc2c(COCCCO)c[nH]c12", "> 100 µM (inactive)"),
    ("CN1CCN(C(=O)CCC(=O)Nc2cc3c(c4ccccc24)-c2ccc4ccccc4c2C3)CC1", "1.55 µM (inactive)"),
    ("Clc1cccc(/C=c2\\nc(-c3ccccc3)n3c2nc2ccccc23)c1", "> 100 µM (inactive)"),
    ("CN(C(=O)Cc1ccccc1)n1cn[n+](CC(=O)OC(C)(C)C)c1", "> 10 µM (inactive)"),
    ("FC(F)(F)c1ccc(/N=N/N2CCCC2)cc1", "> 100 µM (inactive)"),
    ("CCCNc1ncnc2[nH]ncc12", "> 100 µM (inactive)"),
    ("O=C1Nc2c(Cl)cc(Cl)cc2/C1=N/NC(=O)c1ccccc1O", "13.6 µM (inactive)"),
    ("COc1cc2c(cc1OCc1ccccc1)NC(=O)[C@@H]1CCCN1C2=O", "> 100 µM (inactive)"),
    ("CC(C)(C)c1cc(/C=C2/NC(=O)NC2=O)cc(C(C)(C)C)c1O", "14.1 µM (inactive)"),
    ("Cn1c(=O)c2[nH]c(/N=N/N3CCN(CCO)CC3)nc2n(C)c1=O", "> 100 µM (inactive)"),
    ("COC(=O)C1CCC(=O)C(Sc2ccccc2)C1 (stereo unspecified)", "> 100 µM (inactive)"),
    ("Cc1c(/N=N/c2ccccc2)c(C)n(C2OC(CO)C(O)C(O)C2O)c(=S)c1C#N (stereo unspecified)", "21.1 µM (inactive)"),
    ("N#Cc1c(-c2ccc(Cl)cc2)c(C#N)c(=O)n(NS(=O)(=O)c2ccccc2)c1O", "16.2 µM (inactive)"),
    ("CC/C=C/C[C@H](O)[C@H]1C[C@H]2O[C@H](CC(=O)OC)C[C@H]2O1", "> 100 µM (inactive)"),
    ("Cc1ccc(C)c2c1NC(=O)/C2=N\\Nc1ccccc1[N+](=O)[O-]", "> 100 µM (inactive)"),
    ("Cc1c2cc[n+](C)cc2c(C)c2c1[nH]c1ccccc12", "3.76 µM (inactive)"),
    ("COC1OC2COC1(OC)C1OC(C)(C)OC21 (stereo unspecified)", "> 100 µM (inactive)"),
    ("CC1(C)C(=O)C(C)(C)C12SSC1(S2)C(C)(C)C(=O)C1(C)C", "> 100 µM (inactive)"),
]

* * *

System: SF-295
experiment_description: NCI tumour cell line growth inhibition, 48 h
Calls of active or inactive are those of the source. Rule as the data show it: active = GI50 up to about 1.1 µM and inactive = higher.
Outcome codes: active, inactive

# molecule, assayed_target, label_class
data = [
    ("CC1=C(C)SC(=C2Sc3[n-]c(=O)[nH]c(=O)c3S2)S1.CCCC[N+](CCCC)(CCCC)CCCC", "SF-295", "inactive"),
    ("COCC1OC(N2C(=O)NC(=O)[C@@H]3C=C4CCCCC4=C[C@@H]32)C(OC)C1OC (stereo partly drawn)", "SF-295", "inactive"),
    ("CCCOc1ccc(/C=C/c2cc(OC)c(OC)c(OC)c2)cc1", "SF-295", "active"),
    ("Cc1oc2c(Cl)cc(O)c(Cl)c2c2cccc1-2", "SF-295", "inactive"),
    ("CCNC1CC(C(C)(C)NCC)CC=C1C (stereo not drawn)", "SF-295", "inactive"),
    ("COC1OC2COC1(OC)C1OC(C)(C)OC21 (stereo not drawn)", "SF-295", "inactive"),
    ("CN1CC[C@]2(C)c3cc(O)ccc3CC3CCCC1C32C (stereo partly drawn)", "SF-295", "inactive"),
    ("NN=C(S)Nc1cccc(Cl)c1", "SF-295", "inactive"),
    ("CS/C(=N\\C#N)S/C=C/C(=O)c1ccc(Cl)cc1", "SF-295", "inactive"),
    ("Clc1ccc(OC2CCO2)cc1Cl (stereo not drawn)", "SF-295", "inactive"),
    ("c1ccc(C2N3CCCCC3[C@@H]3c4[nH]c5ccccc5c4CCN23)cc1 (stereo partly drawn)", "SF-295", "inactive"),
    ("CC1(CO)COS(=O)OC1 (stereo not drawn)", "SF-295", "inactive"),
    ("O=C1Nc2c(Cl)cc(Cl)cc2/C1=N/NC(=O)c1ccccc1O", "SF-295", "inactive"),
    ("COc1c(CC(C)O)c2c3c(CC(C)O)c(OC)c(=O)c4c(O)cc5c(c6c(cc(O)c(c1=O)c62)OCO5)c43 (stereo not drawn)", "SF-295", "inactive"),
    ("C[N+](C)(C)c1ncnc2c1ncn2C1CC(O)C(CO)O1 (stereo not drawn)", "SF-295", "inactive"),
    ("COc1ccc(-c2ncnc(-c3ccc(OC)c(OC)c3)n2)cc1OC", "SF-295", "inactive"),
    ("Cc1ccc(S(=O)(=O)OCCOCCOCCOCCOCCOS(=O)(=O)c2ccc(C)cc2)cc1", "SF-295", "inactive"),
    ("O=C1NC(c2cccc3ccccc23)Nc2ccccc21 (stereo not drawn)", "SF-295", "active"),
]
